# target.entity: Adenosine receptor A1 (Homo sapiens)
# Sequence (P30542 whole entry): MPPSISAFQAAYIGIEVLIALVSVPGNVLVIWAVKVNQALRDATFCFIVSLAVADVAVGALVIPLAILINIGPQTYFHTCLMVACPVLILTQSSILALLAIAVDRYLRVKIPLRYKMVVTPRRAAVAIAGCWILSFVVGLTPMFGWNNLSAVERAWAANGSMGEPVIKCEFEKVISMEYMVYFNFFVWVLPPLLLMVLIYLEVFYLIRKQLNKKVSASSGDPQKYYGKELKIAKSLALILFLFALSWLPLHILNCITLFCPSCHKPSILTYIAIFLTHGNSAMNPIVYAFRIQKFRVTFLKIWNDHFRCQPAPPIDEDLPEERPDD
pKi: −log10 of the molar value.
Short version: pKi at least 5 is criterion met, less is criterion not met.

| smiles.representation | category |
| --- | --- |
| Cn1cc2c(Cl)nc(N)nc2n1 | criterion not met |
| O=C(Cc1ccccc1)Nc1nc(Cl)c2cn(CCc3ccccc3)nc2n1 | criterion met |
| Cn1cc2c(Cl)nc(NC(=O)c3ccc(C(F)(F)F)cc3)nc2n1 | criterion not met |
| Cn1cc2c(Cl)nc(N(C(=O)c3ccccc3)C(=O)c3ccccc3)nc2n1 | criterion not met |
| CC(C)(C)Cn1cc2c(Cl)nc(NC(=O)Cc3ccccc3)nc2n1 | criterion not met |
| O=C(Nc1nc(Cl)c2cn(CCc3ccccc3)nc2n1)c1ccccc1 | criterion met |
| Cc1ccc(C(=O)Nc2nc(Cl)c3cn(C)nc3n2)cc1 | criterion not met |
| Cn1cc2c(Cl)nc(NC(=O)c3ccccc3)nc2n1 | criterion not met |
| Cn1cc2c(Cl)nc(NC(=O)Cc3ccccc3)nc2n1 | criterion not met |

----------
# Species: Homo sapiens
# assay.procedure: Selectivity ratio of Ki for human adenosine A3 receptor to Ki for human adenosine A2A receptor
Ratio Ki for assorted molecules

| smiles.representation | operator | Ratio Ki |
| --- | --- | --- |
| CC(C)n1cc2c(Cl)nc(NC(=O)c3ccc(F)cc3)nc2n1 | > | 37 |
| CC(C)n1cc2c(Cl)nc(N(C(=O)c3ccccc3)C(=O)c3ccccc3)nc2n1 | = | 8 |
| O=C(Nc1nc(Cl)c2cn(CCc3ccccc3)nc2n1)c1ccc(F)cc1 | > | 50 |
| Cc1ccc(C(=O)Nc2nc(Cl)c3cn(C(C)C)nc3n2)cc1 | = | 91 |

----------
# target.entity: Adenosine receptor A2a (Homo sapiens)
# Sequence (P29274 whole entry): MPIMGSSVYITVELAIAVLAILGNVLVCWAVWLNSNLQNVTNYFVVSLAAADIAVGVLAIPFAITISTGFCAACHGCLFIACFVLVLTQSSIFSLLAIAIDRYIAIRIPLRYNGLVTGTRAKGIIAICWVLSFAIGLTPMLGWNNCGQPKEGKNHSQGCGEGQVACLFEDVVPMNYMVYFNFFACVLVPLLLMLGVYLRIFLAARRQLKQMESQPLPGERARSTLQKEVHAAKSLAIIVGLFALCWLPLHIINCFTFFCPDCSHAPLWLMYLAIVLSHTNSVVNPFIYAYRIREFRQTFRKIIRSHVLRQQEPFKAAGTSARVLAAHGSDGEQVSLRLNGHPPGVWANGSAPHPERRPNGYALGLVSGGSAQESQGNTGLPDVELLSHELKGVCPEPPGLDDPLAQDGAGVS
measured.metric: Ki

| smiles.representation | reading |
| --- | --- |
| CC(C)n1cc2c(Cl)nc(N(C(=O)c3ccccc3)C(=O)c3ccccc3)nc2n1 | 0.8 µM |
| CC(C)(C)Cn1cc2c(Cl)nc(N(C(=O)c3ccccc3)C(=O)c3ccccc3)nc2n1 | > 100 µM |
| CC(C)(C)Cn1cc2c(Cl)nc(NC(=O)Cc3ccccc3)nc2n1 | 23.6 µM |
| CC(C)(C)Cn1cc2c(Cl)nc(NC(=O)c3ccc(C(F)(F)F)cc3)nc2n1 | > 100 µM |
| CCOC(=O)c1nc(NC(=O)c2ccc(C(F)(F)F)cc2)nc2nn(CC(C)(C)C)cc12 | > 100 µM |
| CCOC(=O)c1nc(NC(=O)c2ccc(C)cc2)nc2nn(CC(C)(C)C)cc12 | > 100 µM |
| O=C(Cc1ccccc1)Nc1nc(Cl)c2cn(CCc3ccccc3)nc2n1 | 8.6 µM |
| CC(C)n1cc2c(Cl)nc(N)nc2n1 | 3.3 µM |
| CC(C)n1cc2c(Cl)nc(NC(=O)Cc3ccccc3)nc2n1 | 4.7 µM |
| Cn1cc2c(Cl)nc(NC(=O)c3ccccc3)nc2n1 | 24.2 µM |

----------
# target.entity: Adenosine receptor A2b (Homo sapiens, UniProt P29275)
# Sequence (P29275 whole entry): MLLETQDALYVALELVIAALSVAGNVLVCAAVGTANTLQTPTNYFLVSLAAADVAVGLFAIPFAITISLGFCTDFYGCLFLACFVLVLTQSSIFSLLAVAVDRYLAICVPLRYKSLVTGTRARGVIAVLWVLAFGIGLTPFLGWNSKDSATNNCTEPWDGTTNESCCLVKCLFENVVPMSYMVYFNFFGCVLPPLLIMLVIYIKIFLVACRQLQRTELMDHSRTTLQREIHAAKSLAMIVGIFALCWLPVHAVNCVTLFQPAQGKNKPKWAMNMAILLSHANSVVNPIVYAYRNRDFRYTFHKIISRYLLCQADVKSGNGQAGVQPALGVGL
# assay.procedure: Antagonist activity at human adenosine A2B receptor expressed in CHO cells assessed as inhibition of NECA-induced adenylyl cyclase activity after 20 mins in presence of [alpha-32P]ATP
measured.metric: Ki

| smiles.representation | target.entity | reading |
| --- | --- | --- |
| CC(C)(C)Cn1cc2c(Cl)nc(NC(=O)Cc3ccccc3)nc2n1 | Adenosine receptor A2b (Homo sapiens, UniProt P29275) | > 20 µM |
| Cc1ccc(C(=O)Nc2nc(Cl)c3cn(C(C)C)nc3n2)cc1 | Adenosine receptor A2b (Homo sapiens, UniProt P29275) | > 20 µM |
| Cn1cc2c(Cl)nc(N)nc2n1 | Adenosine receptor A2b (Homo sapiens, UniProt P29275) | > 20 µM |
| CC(C)n1cc2c(Cl)nc(NC(=O)Cc3ccccc3)nc2n1 | Adenosine receptor A2b (Homo sapiens, UniProt P29275) | > 10 µM |
| Cn1cc2c(Cl)nc(NC(=O)c3ccccc3)nc2n1 | Adenosine receptor A2b (Homo sapiens, UniProt P29275) | > 20 µM |
| O=C(Nc1nc(Cl)c2cn(CCc3ccccc3)nc2n1)c1ccccc1 | Adenosine receptor A2b (Homo sapiens, UniProt P29275) | > 20 µM |
| Cc1ccc(C(=O)Nc2nc(Cl)c3cn(CCc4ccccc4)nc3n2)cc1 | Adenosine receptor A2b (Homo sapiens, UniProt P29275) | > 20 µM |
| CC(C)(C)Cn1cc2c(Cl)nc(NC(=O)c3ccc(C(F)(F)F)cc3)nc2n1 | Adenosine receptor A2b (Homo sapiens, UniProt P29275) | > 20 µM |
| Cn1cc2c(Cl)nc(NC(=O)Cc3ccccc3)nc2n1 | Adenosine receptor A2b (Homo sapiens, UniProt P29275) | > 20 µM |
| CC(C)n1cc2c(Cl)nc(NC(=O)c3ccc(C(F)(F)F)cc3)nc2n1 | Adenosine receptor A2b (Homo sapiens, UniProt P29275) | > 20 µM |
| O=C(Cc1ccccc1)Nc1nc(Cl)c2cn(CCc3ccccc3)nc2n1 | Adenosine receptor A2b (Homo sapiens, UniProt P29275) | > 20 µM |
| CCOC(=O)c1nc(NC(=O)c2ccc(C(F)(F)F)cc2)nc2nn(CC(C)(C)C)cc12 | Adenosine receptor A2b (Homo sapiens, UniProt P29275) | > 20 µM |
| Cc1ccc(C(=O)Nc2nc(Cl)c3cn(CC(C)(C)C)nc3n2)cc1 | Adenosine receptor A2b (Homo sapiens, UniProt P29275) | > 10 µM |
| Cn1cc2c(Cl)nc(NC(=O)c3ccc(F)cc3)nc2n1 | Adenosine receptor A2b (Homo sapiens, UniProt P29275) | > 20 µM |
| Cn1cc2c(Cl)nc(N(C(=O)c3ccccc3)C(=O)c3ccccc3)nc2n1 | Adenosine receptor A2b (Homo sapiens, UniProt P29275) | > 20 µM |
| CC(C)n1cc2c(Cl)nc(NC(=O)c3ccccc3)nc2n1 | Adenosine receptor A2b (Homo sapiens, UniProt P29275) | > 20 µM |
| CC(C)n1cc2c(Cl)nc(N)nc2n1 | Adenosine receptor A2b (Homo sapiens, UniProt P29275) | > 10 µM |
| CC(C)n1cc2c(Cl)nc(NC(=O)c3ccc(F)cc3)nc2n1 | Adenosine receptor A2b (Homo sapiens, UniProt P29275) | > 20 µM |
| Cn1cc2c(Cl)nc(NC(=O)c3ccc(C(F)(F)F)cc3)nc2n1 | Adenosine receptor A2b (Homo sapiens, UniProt P29275) | > 20 µM |
| O=C(Nc1nc(Cl)c2cn(CCc3ccccc3)nc2n1)c1ccc(C(F)(F)F)cc1 | Adenosine receptor A2b (Homo sapiens, UniProt P29275) | > 20 µM |
| CC(C)(C)Cn1cc2c(Cl)nc(NC(=O)c3ccccc3)nc2n1 | Adenosine receptor A2b (Homo sapiens, UniProt P29275) | ≥ 10 µM |
| CC(C)n1cc2c(Cl)nc(N(C(=O)c3ccccc3)C(=O)c3ccccc3)nc2n1 | Adenosine receptor A2b (Homo sapiens, UniProt P29275) | > 20 µM |
| Cc1ccc(C(=O)Nc2nc(Cl)c3cn(C)nc3n2)cc1 | Adenosine receptor A2b (Homo sapiens, UniProt P29275) | > 20 µM |

----------
# target.entity: Adenosine receptor A2b (Homo sapiens, UniProt P29275)
# assay.procedure: Antagonist activity at human adenosine A2B receptor expressed in CHO cells assessed as inhibition of NECA-induced adenylyl cyclase activity after 20 mins in presence of [alpha-32P]ATP

| smiles.representation | Ki |
| --- | --- |
| CC(C)(C)Cn1cc2c(Cl)nc(N(C(=O)c3ccccc3)C(=O)c3ccccc3)nc2n1 | > 20 µM |
| CCOC(=O)c1nc(NC(=O)c2ccc(C)cc2)nc2nn(CC(C)(C)C)cc12 | > 20 µM |
| CC(C)(C)Cn1cc2c(Cl)nc(N)nc2n1 | > 10 µM |
| O=C(c1ccccc1)N(C(=O)c1ccccc1)c1nc(Cl)c2cn(CCc3ccccc3)nc2n1 | > 20 µM |
| Nc1nc(Cl)c2cn(CCc3ccccc3)nc2n1 | > 20 µM |
| O=C(Nc1nc(Cl)c2cn(CCc3ccccc3)nc2n1)c1ccc(F)cc1 | > 20 µM |
| CC(C)(C)Cn1cc2c(Cl)nc(NC(=O)c3ccc(F)cc3)nc2n1 | > 10 µM |

----------
# target.entity: Adenosine receptor A3 (Homo sapiens, UniProt P0DMS8)
# Sequence (P0DMS8 whole entry): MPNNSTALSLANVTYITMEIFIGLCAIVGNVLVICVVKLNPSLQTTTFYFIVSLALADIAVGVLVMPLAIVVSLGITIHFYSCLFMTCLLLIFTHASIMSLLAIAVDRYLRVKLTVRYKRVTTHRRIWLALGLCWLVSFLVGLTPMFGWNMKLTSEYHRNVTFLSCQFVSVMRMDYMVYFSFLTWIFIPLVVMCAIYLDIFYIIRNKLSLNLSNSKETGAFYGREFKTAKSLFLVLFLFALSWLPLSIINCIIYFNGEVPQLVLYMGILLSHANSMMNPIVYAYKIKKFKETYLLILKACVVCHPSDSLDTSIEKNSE
pKi: −log10 of the molar value.
Rule: pKi under 5 gives F, otherwise T.

| smiles.representation | target.entity | category |
| --- | --- | --- |
| Nc1nc(Cl)c2cn(CCc3ccccc3)nc2n1 | Adenosine receptor A3 (Homo sapiens, UniProt P0DMS8) | F |
| Cn1cc2c(Cl)nc(NC(=O)c3ccc(F)cc3)nc2n1 | Adenosine receptor A3 (Homo sapiens, UniProt P0DMS8) | F |
| CCOC(=O)c1nc(NC(=O)c2ccc(C(F)(F)F)cc2)nc2nn(CC(C)(C)C)cc12 | Adenosine receptor A3 (Homo sapiens, UniProt P0DMS8) | T |
| CC(C)n1cc2c(Cl)nc(NC(=O)c3ccc(F)cc3)nc2n1 | Adenosine receptor A3 (Homo sapiens, UniProt P0DMS8) | F |
| CC(C)n1cc2c(Cl)nc(NC(=O)Cc3ccccc3)nc2n1 | Adenosine receptor A3 (Homo sapiens, UniProt P0DMS8) | F |
| CC(C)n1cc2c(Cl)nc(N(C(=O)c3ccccc3)C(=O)c3ccccc3)nc2n1 | Adenosine receptor A3 (Homo sapiens, UniProt P0DMS8) | T |
| O=C(c1ccccc1)N(C(=O)c1ccccc1)c1nc(Cl)c2cn(CCc3ccccc3)nc2n1 | Adenosine receptor A3 (Homo sapiens, UniProt P0DMS8) | T |
| CC(C)(C)Cn1cc2c(Cl)nc(NC(=O)c3ccc(C(F)(F)F)cc3)nc2n1 | Adenosine receptor A3 (Homo sapiens, UniProt P0DMS8) | T |
| Cn1cc2c(Cl)nc(NC(=O)Cc3ccccc3)nc2n1 | Adenosine receptor A3 (Homo sapiens, UniProt P0DMS8) | T |
| O=C(Nc1nc(Cl)c2cn(CCc3ccccc3)nc2n1)c1ccc(F)cc1 | Adenosine receptor A3 (Homo sapiens, UniProt P0DMS8) | F |
| Cn1cc2c(Cl)nc(N)nc2n1 | Adenosine receptor A3 (Homo sapiens, UniProt P0DMS8) | F |
| Cn1cc2c(Cl)nc(N(C(=O)c3ccccc3)C(=O)c3ccccc3)nc2n1 | Adenosine receptor A3 (Homo sapiens, UniProt P0DMS8) | T |
| CCOC(=O)c1nc(NC(=O)c2ccc(C)cc2)nc2nn(CC(C)(C)C)cc12 | Adenosine receptor A3 (Homo sapiens, UniProt P0DMS8) | T |
| Cc1ccc(C(=O)Nc2nc(Cl)c3cn(C(C)C)nc3n2)cc1 | Adenosine receptor A3 (Homo sapiens, UniProt P0DMS8) | F |
| CC(C)(C)Cn1cc2c(Cl)nc(N)nc2n1 | Adenosine receptor A3 (Homo sapiens, UniProt P0DMS8) | F |
| CC(C)(C)Cn1cc2c(Cl)nc(NC(=O)c3ccccc3)nc2n1 | Adenosine receptor A3 (Homo sapiens, UniProt P0DMS8) | F |

Source of measurements: ChEMBL document CHEMBL3112554
